Assay: Metabolic stability in rat liver microsomes assessed as intrinsic clearance
Type: ADME, Microsome

| Chemical String | microsomal CLint (µL/min/mg) |
| --- | --- |
| CC(C)CC[C@@]1(C)C(=O)C(C2=NS(=O)(=O)c3cc(NS(C)(=O)=O)ccc3N2)=C([O-])c2ccccc21.[Na+] | 36.3 |
| CC(C)(C)CC[C@@]1(C)C(=O)C(C2=NS(=O)(=O)c3cc(NS(C)(=O)=O)ccc3N2)=C([O-])c2ccccc21.[Na+] | 8.7 |

----------
Test: AUC in monkey at 5 mg/kg, po
Format: ADME, organism-based, Macaca mulatta
Design: dose 5 mg/kg, route oral
Conditions: rhesus monkey, plasma
Measurement Type: AUC (ng·h/mL)

| Chemical String | Reported Value |
| --- | --- |
| CC(C)(C)CC[C@@]1(C)C(=O)C(C2=NS(=O)(=O)c3cc(NS(C)(=O)=O)ccc3N2)=C([O-])c2ccccc21.[Na+] | 1900 |

All figures here come from ChEMBL document CHEMBL1152770.
